test system: A172; assay: Cell viability assay (Example 2); type: cell-based; details: Homo sapiens, A 172; A172, 48 hours
measurement.kind: pIC50
Friendly reminder that pIC50 comes from taking -log10 of the concentration in mol/L.

Task: // returns reported pIC50 for input CCOC(=O)C1=C(C)Nc2nc3c(c(N)c2C1c1ccccc1Cl)CC(C)(C)CC3 (stereo not shown) [Compound S2]
Result: 5.33

* * *

tested on: CHO-K1; assay: Cell viability assay (Example 2); type: cell-based, hamster; conditions: CHO-K1, 48 h, non-tumor cell line CHO-K1, 48 hours
pIC50: −log10 of the molar value.
measurement.kind: pIC50

Task: Provide value of pIC50 for this record tested with CHO-K1: CCOC(=O)C1=C(C)Nc2nc3c(c(N)c2C1c1ccccc1Cl)CC(C)(C)CC3 (stereo not shown) [Compound S2]
Result: < 4.00

Data provenance is patent US20250057832A1.
